TARGET_OR_SYSTEM: T1, mouse matriptase-2 ECD protein his tag (mouse, UniProt Q9DBI0 80-811)
T1 construct: aa 80-811 of Q9DBI0 with C-terminal linker and His tag; also called mouse MTP-2 ECD; moMTP-2
T1 sequence: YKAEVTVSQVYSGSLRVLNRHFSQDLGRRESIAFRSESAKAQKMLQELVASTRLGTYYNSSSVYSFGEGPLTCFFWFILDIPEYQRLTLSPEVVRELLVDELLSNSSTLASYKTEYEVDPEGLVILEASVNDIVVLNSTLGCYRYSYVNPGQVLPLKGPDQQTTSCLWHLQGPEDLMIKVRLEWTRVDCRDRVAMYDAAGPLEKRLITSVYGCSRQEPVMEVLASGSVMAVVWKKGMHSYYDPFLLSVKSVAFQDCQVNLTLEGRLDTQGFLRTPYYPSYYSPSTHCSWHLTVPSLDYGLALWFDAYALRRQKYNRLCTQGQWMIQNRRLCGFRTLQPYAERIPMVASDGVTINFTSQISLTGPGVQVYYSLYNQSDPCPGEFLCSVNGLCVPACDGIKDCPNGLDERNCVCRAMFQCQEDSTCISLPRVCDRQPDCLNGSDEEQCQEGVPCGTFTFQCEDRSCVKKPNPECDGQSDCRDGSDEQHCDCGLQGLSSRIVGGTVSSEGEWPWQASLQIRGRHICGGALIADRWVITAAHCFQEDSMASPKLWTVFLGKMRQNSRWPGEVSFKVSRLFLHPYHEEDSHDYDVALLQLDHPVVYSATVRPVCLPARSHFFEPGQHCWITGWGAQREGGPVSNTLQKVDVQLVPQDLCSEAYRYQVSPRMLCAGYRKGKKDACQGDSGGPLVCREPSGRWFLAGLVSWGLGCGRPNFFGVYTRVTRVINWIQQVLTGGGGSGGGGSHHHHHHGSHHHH
TEST: SPR (Biacore 8K), huIgG4PE captured on anti-human Fc, MTP-2 ECD as analyte, 1:1 fit
What Stoichiometry was measured for each of the following?
Please state the value as a number alone, without comment.

Query block: Can you share its Stoichiometry? I mean this binder: NORI-008 (antibody, human IgG4 S228P, kappa, V domains shown, human IgG4PE, kappa, in the in vitro assays; a mouse IgG1 format was used in one in vivo study only; also called NORI-008 hulgG4PE; NORI-008 IgG) VH: QVQLQESGPGLVKPSETLSLTCSVSGGSVSSGRYYWTWIRQPPGKGLEWIGYISNSGNTNYNPSLKSRVTISLDTSKKQFSLSLSAVTAADTAVYYCARGFIYDYWFDPWGQGSLVTVSS VL: DSQMTQSPSSLSASVGDRVTITCQASQDIDNYLNWYQQRPGKAPKLLIYDASKLETGVPSRFSGSGSGTDFTFTISSLQPEDFATYYCQQYGNLPITFGQGTRLDIKR
Result block: 0.86

Query block: Reported Stoichiometry, binder NORI-014 (antibody, human IgG4 S228P, lambda, V domains shown, human IgG4PE, lambda) VH: EVQLVESGGGLIQAGRSLRLSCAASGFTFDEHVMYWVRQIPGKGLEWISSITWKSDIIAYADSVKGRFTISRDNAKNALYLQMNSLRAEDTALYYCAREKDGDFYYYYFAMDVWGQGTTVTVSS VL: QSALTQPPSASGSPGQSVTLSCTGTSSDVGYYNYVSWYLQHPGKAPKLMIYEVSKRPSGVPDRFSGSKSANTASLTVSGLQAEDEADYYCSSYAGSNKVVFGGGTKVTVLG : ____
Result block: 0.93

Query block: Which value of Stoichiometry has been reported for NORI-012 (antibody, human IgG4 S228P, lambda, V domains shown, human IgG4PE, lambda) VH: EVQLVESGGGLVQPGRSLRLSCAASGFTFDDHVMYWVRQAPGKGLEWVSGISWNSDTIGYADAVKGRFTISRDNAKNVLYLHMNSLRPEDTALYYCAREKDGDFYYNYFVMDVWGQGTTVTVSP VL: QSALTQPPSASGSPGQSVTISCTGTSSDVGFYNFVSWYQQHPDKAPKVMIYEVSKRPSGVPDRFSGSKSGNTASLTVSGLQAEDEADYYCSSYAGSNKVVFGGGTKLTVLG in the records?
Result block: 1.08

Query block: Which Stoichiometry reading was recorded for the binder NORI-009 (antibody, human IgG4 S228P, lambda, V domains shown, human IgG4PE, lambda) VH: EVQLVESGGGLVQPGRSLRLSCAASGFTFNDHVIYWVRQVPGKGLEWVSTISWNSDTIAYADSVKGRFTISRDNAKNALYLQMNSLRTEDTALYYCAREKDGDFYYDYFAMDVWGQGTTVTVSS VL: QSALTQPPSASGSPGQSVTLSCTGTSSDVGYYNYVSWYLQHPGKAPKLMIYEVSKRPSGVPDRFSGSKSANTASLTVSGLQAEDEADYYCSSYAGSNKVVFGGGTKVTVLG ?
Result block: 0.47
